- Experimental details: Cytotoxicity against mouse RAW264.7 cells at 100 uM after 48 hrs by MTT assay
- Type: cell-based
- Test parameters: read-out: INH
Listed next: entries and their corresponding cytotoxicity at 48 h, 100 µM.
Value expressed in %; do not type the unit.

| Compound string | Outcome measure | Recorded value |
| --- | --- | --- |
| NC(=O)c1cc(-c2ccccc2)sc1NC(=O)c1ccc(Cl)cc1 | cytotoxicity at 48 h, 100 µM | 38.5 |

Requested read-out: cytotoxicity at 48 h, 100 µM. Entry: CCCC(=O)Nc1sc(-c2ccccc2)cc1C(N)=O 39.8

Requested read-out: cytotoxicity at 48 h, 100 µM. Entry: NC(=O)c1cc(-c2ccccc2)sc1NC(=S)Nc1ccc(Br)cc1 35.6

Requested read-out: cytotoxicity at 48 h, 100 µM. Entry: NC(=O)c1cc(-c2ccccc2)sc1NC(=O)c1cnccn1 34.3

Requested read-out: cytotoxicity at 48 h, 100 µM. Entry: Cc1ccc(NC(=O)Nc2sc(-c3ccccc3)cc2C(N)=O)cc1 37.6

Requested read-out: cytotoxicity at 48 h, 100 µM. Entry: NC(=O)c1cc(-c2ccccc2)sc1NC(=O)c1ccc(Oc2ccccc2)cc1 35.8
